assay-system: Activated CDC42 kinase 1 (Homo sapiens)
measurement-parameters: at 1 µM
parameter-measured: residual activity (%)
Expressed in %, but write only the number.

Fill in the blank: the reported residual activity of COc1cc2ncnc(N3CCN(C(=O)Nc4ccc(Oc5ccccc5)cc4)CC3)c2cc1OC is ____.
68

* * *

assay-system: Cyclin-dependent kinase 7/ cyclin H (Homo sapiens) (UniProt P51946+P50613)
measurement-parameters: at 10 µM
# residual activity per entry
Value expressed in %; do not type the unit.

Solved entries (count: 5):
[
  {
    "test-smiles": "CC(=O)c1ccc(N2CCOCC2)cc1O",
    "meas-value": 97
  },
  {
    "test-smiles": "COc1cc2ncnc(Nc3ccc(NC(=O)c4ccccc4)cc3)c2cc1OC",
    "meas-value": 102
  },
  {
    "test-smiles": "NC(=O)c1ccc2[nH]c(-c3ccc(Oc4ccc(Cl)cc4)cc3)nc2c1",
    "meas-value": 98
  },
  {
    "test-smiles": "c1ccc(-c2n[nH]c3c2oc2ccccc23)cc1",
    "meas-value": 91
  },
  {
    "test-smiles": "CCC(=O)Nc1ccc2ncnc(Nc3cccc(Br)c3)c2c1",
    "meas-value": 95
  }
]

Name the recorded residual activity for CC#CC(=O)Nc1cc2c(Nc3ccc(F)c(Cl)c3)ncnc2cn1 .
108

// query: O=c1c2ccccc2[nH]c(=S)n1CCN1CCC(=C(c2ccc(F)cc2)c2ccc(F)cc2)CC1
95

Also check CO[C@H]1[C@@H](OC)C[C@H](C)[C@@H](OC)C2=CC(=O)C=C(NC(=O)/C(C)=C/C=C/[C@H](OC)[C@@H](OC(N)=O)/C(C)=C/[C@@H]1C)C2=O
101

* * *

assay-system: Ephrin type-A receptor 2 (Homo sapiens)
measurement-parameters: at 10 µM
parameter-measured: residual activity (%)
Give the value in % but do not write % after it.

[
  {
    "compound": "COc1cccc(-c2cc(=O)c3ccccc3o2)c1N",
    "residual activity (%)": 117
  },
  {
    "compound": "O=C1NC(=O)/C(=C\\c2ccc3nccnc3c2)S1",
    "residual activity (%)": 111
  },
  {
    "compound": "CCOc1cc2ncnc(Nc3cccc(Br)c3)c2cc1OCC",
    "residual activity (%)": 18
  },
  {
    "compound": "O=C1Nc2ccccc2/C1=C1/Nc2ccccc2/C1=N\\OCCC(O)CO (stereo unspecified)",
    "residual activity (%)": 14
  }
]

Recall the recorded residual activity for CCC(=O)Nc1ccc2ncnc(Nc3cccc(Br)c3)c2c1 with Ephrin type-A receptor 2 (Homo sapiens) and state it.
90

What about this compound? Cn1cc(/C=C2\C(=O)Nc3ccc(S(N)(=O)=O)cc32)c2ccccc21
72

Input Ic1cccc(CSc2nnc(-c3ccncc3)o2)c1
91

Then this compound: Oc1c2ccccc2c2c3c(cccc13)N=N2
60

Another compound: O=Nc1c(-c2c(O)[nH]c3ccccc23)[nH]c2ccccc12
16

// query: COc1ccc(S(=O)(=O)N(CCO)c2ccccc2CN(C)C/C=C/c2ccc(Cl)cc2)cc1
86

Next compound up: Nc1ccc2ncnc(NCCc3ccc(Oc4ccccc4)cc3)c2c1
91

* * *

assay-system: SRSF protein kinase 2 (Homo sapiens) (UniProt P78362)
Sequence (P78362 whole entry, looked up): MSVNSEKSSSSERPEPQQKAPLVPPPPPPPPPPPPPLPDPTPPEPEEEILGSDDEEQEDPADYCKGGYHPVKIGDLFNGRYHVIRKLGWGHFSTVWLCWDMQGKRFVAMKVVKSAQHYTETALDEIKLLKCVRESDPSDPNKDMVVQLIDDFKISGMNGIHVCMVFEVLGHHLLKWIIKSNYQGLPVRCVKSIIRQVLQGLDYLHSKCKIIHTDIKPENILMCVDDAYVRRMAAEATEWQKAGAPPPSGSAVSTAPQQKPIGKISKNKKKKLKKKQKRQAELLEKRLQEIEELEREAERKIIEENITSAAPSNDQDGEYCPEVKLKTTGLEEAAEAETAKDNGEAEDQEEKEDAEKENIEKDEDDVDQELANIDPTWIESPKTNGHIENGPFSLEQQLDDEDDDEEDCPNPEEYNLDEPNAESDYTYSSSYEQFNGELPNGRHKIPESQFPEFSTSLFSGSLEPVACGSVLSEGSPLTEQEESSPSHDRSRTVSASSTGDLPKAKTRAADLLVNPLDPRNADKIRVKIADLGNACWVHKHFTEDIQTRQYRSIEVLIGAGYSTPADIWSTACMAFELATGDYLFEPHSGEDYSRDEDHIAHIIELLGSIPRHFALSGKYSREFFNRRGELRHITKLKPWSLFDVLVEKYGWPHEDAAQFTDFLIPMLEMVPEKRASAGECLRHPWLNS
measurement-parameters: at 1 µM
Recorded residual activity, one value per entry.
The answer is to be given in %; state only the numeric part.

Could you tell me which residual activity is on file for c1ccc2c(-c3ccncc3)c[nH]c2c1 ?
89

Now try COc1cc2ncnc(Nc3ccc(NC(=O)c4ccccc4)cc3)c2cc1OC .
107

Same question, Cc1cccc(-c2[nH]c(C(C)(C)C)nc2-c2ccc3c(c2)OCO3)n1 this time
106

Please give the result for Cc1cc(Nc2nc(-c3ccccc3)nc3ccccc23)n[nH]1 too.
67

Same lookup for O=Nc1c(-c2c(O)[nH]c3ccccc23)[nH]c2ccccc12 , please.
96

* * *

assay-system: Macrophage-stimulating protein receptor (Homo sapiens)
measurement-parameters: at 10 µM
Class membership depends on residual activity alone; the intervals are label 0 (below 70%), label 1 (70% to below 80%), label 2 (80% or more)

[
  {
    "test-smiles": "Oc1c2ccccc2c2c3c(cccc13)N=N2",
    "class": "label 0"
  }
]

Record CN(C)CCCn1cc(C2=C(c3c[nH]c4ccccc34)C(=O)NC2=O)c2ccccc21 — which class?
label 2

Same again, this time with Nc1n[nH]c2nnc(-c3c(-c4ccccc4)nn4ccccc34)cc12
label 0

Next compound: C[C@@H](N)[C@H]1CC[C@H](C(=O)Nc2ccncc2)CC1
label 2

Entry to check: COc1cc2ncnc(N3CCN(C(=O)Nc4ccc(Oc5ccccc5)cc4)CC3)c2cc1OC
label 0

What do we get for Nc1cccc(-c2cc3c(Oc4cccc(O)c4)ncnc3[nH]2)c1 ?
label 0

Here is the next compound: O=c1cc(-c2cccc3c2Sc2ccccc2S3)oc(N2CCOCC2)c1
label 2

Cool, now COc1cc2ncnc(Nc3ccc(Oc4ccccc4)cc3)c2cc1OC
label 0

How about O=[N+]([O-])c1ccc(-c2nc(-c3ccc(F)cc3)c(-c3ccncc3)[nH]2)cc1 ?
label 2

* * *

assay-system: Mitogen-activated protein kinase kinase kinase 7 (Homo sapiens) (UniProt O43318)
Sequence (whole entry): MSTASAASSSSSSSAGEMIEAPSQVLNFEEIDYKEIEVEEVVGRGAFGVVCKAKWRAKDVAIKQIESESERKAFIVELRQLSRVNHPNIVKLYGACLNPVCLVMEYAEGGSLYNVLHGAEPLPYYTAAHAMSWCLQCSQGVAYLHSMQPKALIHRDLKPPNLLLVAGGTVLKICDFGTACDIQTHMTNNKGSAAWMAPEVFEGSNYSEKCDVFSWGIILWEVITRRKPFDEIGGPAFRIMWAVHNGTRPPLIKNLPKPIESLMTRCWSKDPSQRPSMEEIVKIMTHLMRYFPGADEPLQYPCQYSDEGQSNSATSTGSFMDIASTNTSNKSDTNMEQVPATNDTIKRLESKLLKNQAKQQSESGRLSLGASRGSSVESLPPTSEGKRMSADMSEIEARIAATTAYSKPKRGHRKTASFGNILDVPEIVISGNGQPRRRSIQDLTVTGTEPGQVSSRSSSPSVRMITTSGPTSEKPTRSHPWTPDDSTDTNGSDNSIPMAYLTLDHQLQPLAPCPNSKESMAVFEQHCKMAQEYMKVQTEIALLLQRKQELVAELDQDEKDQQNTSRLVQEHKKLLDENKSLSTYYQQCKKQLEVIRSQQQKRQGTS
measurement-parameters: at 10 µM
Output schema: class label derived from residual activity. Mapping: bottom end (below 80%), midrange (80% to below 90%), top end (90% or more)

Solved entries:
[
  {
    "test-smiles": "Nc1n[nH]c2nnc(-c3c(-c4ccccc4)nn4ccccc34)cc12",
    "class": "bottom end"
  },
  {
    "test-smiles": "O=c1c2ccccc2[nH]c(=S)n1CCN1CCC(=C(c2ccc(F)cc2)c2ccc(F)cc2)CC1",
    "class": "midrange"
  }
]

Band assignment needed for O=Nc1c(-c2c(O)[nH]c3ccccc23)[nH]c2ccccc12 please.
bottom end

Now consider Cn1cnc2cc3c(Nc4cccc(Br)c4)ncnc3cc21 .
top end

* * *

assay-system: Serine/threonine-protein kinase NLK (Homo sapiens)
Sequence (whole entry): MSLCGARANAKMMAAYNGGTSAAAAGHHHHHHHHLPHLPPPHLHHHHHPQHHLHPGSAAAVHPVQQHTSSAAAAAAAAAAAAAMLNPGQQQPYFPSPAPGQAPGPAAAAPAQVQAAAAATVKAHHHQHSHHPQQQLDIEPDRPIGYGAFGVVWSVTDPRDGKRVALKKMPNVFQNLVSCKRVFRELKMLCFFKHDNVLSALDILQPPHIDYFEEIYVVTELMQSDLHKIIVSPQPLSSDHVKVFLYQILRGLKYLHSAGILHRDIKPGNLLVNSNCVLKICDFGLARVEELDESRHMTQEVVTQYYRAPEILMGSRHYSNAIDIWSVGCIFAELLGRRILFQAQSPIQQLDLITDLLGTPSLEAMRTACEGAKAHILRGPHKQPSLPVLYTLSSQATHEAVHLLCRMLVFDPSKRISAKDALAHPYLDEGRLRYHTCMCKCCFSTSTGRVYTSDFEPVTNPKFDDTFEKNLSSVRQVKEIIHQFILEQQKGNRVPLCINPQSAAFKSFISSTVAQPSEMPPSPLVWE
measurement-parameters: at 1 µM
Catalogue of residual activity values
Give the value, in units of %, as a plain number.

[
  {
    "test-smiles": "Cc1cncc2cccc(S(=O)(=O)N3CCCN(C(=O)CN)C[C@H]3C)c12",
    "assay-system": "Serine/threonine-protein kinase NLK (Homo sapiens)",
    "residual activity (%)": 90
  },
  {
    "test-smiles": "O=Nc1c(-c2c(O)[nH]c3ccccc23)[nH]c2ccccc12",
    "assay-system": "Serine/threonine-protein kinase NLK (Homo sapiens)",
    "residual activity (%)": 82
  },
  {
    "test-smiles": "Cc1ccc(S(=O)(=O)/C=C/C#N)cc1",
    "assay-system": "Serine/threonine-protein kinase NLK (Homo sapiens)",
    "residual activity (%)": 101
  },
  {
    "test-smiles": "c1ccc2c(-c3ccncc3)c[nH]c2c1",
    "assay-system": "Serine/threonine-protein kinase NLK (Homo sapiens)",
    "residual activity (%)": 96
  }
]

Tell me the measured residual activity of CC(C)n1cnc2/c(=N/c3cccc(Cl)c3)nc(NCCO)[nH]c21 , please.
88

# credit: ChEMBL document CHEMBL2218924
